Source: patent EP2168591A1

Tested on: Cladosporium herbarum
Format: cell-based
Experimental Setup: complete inhibition of spore germination/mycelial growth, visual screening
No end group written: not given here.
Readout Type: Minimal inhibition concentration (MIC) (µg/mL)
Lab book: enter the figure in µg/mL, no units written.

Answered examples (3):
- Substance: "LLIKFLKRFIKH-NH2 [SP7]"
  Observed Value: 20
- Substance: "ALAHFLKKAIKK-NH2 [SP6]"
  Observed Value: 100
- Substance: "LLIRAAKKFIKK-NH2 [SP8]"
  Observed Value: 40

We now examine a further substance.
Prompt line: For the substance shown here, LLIAAFKKLVKK-NH2 [SP5] , give the reported Minimal inhibition concentration (MIC).
Response line: 100

----------
Test system: Pseudomonas syringae pv. tomato
Experimental Setup: complete inhibition of bacterial growth; Pseudomonas syringae pv. tomato; overnight at 25 °C
No end group written: not given here.
// Minimal inhibition concentration (MIC) lookup, one value per entry
Lab book: enter the figure in µg/mL, no units written.

- Substance: "ALAHFLKKAIKK-NH2 [SP6]"
  Unit Tag: "µg/mL"
  Observed Value: 10

Prompt line: For the substance shown here, LLIKFLKRFIKH-NH2 [SP7] , give the reported Minimal inhibition concentration (MIC).
Response line: 5
